Sourced from the supplement of paper PMC10065799

target: FGFR1 (UniProt P11362); assay: phosphorylation enrichment, bacterial display (enrichment ratio); higher = better substrate or ligand; peptides without Tyr show the background;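 also: 11-residue human phosphosite peptides and single-mutation variants displayed on the E. coli surface, counted by deep sequencing, each peptide's frequency after selection divided by its frequency in the unselected input library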;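 also: frequency after pTyr selection over input frequency; kinase dosed for 20-30% of maximal phosphorylation in three min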
Sequence (P11362 whole entry, looked up): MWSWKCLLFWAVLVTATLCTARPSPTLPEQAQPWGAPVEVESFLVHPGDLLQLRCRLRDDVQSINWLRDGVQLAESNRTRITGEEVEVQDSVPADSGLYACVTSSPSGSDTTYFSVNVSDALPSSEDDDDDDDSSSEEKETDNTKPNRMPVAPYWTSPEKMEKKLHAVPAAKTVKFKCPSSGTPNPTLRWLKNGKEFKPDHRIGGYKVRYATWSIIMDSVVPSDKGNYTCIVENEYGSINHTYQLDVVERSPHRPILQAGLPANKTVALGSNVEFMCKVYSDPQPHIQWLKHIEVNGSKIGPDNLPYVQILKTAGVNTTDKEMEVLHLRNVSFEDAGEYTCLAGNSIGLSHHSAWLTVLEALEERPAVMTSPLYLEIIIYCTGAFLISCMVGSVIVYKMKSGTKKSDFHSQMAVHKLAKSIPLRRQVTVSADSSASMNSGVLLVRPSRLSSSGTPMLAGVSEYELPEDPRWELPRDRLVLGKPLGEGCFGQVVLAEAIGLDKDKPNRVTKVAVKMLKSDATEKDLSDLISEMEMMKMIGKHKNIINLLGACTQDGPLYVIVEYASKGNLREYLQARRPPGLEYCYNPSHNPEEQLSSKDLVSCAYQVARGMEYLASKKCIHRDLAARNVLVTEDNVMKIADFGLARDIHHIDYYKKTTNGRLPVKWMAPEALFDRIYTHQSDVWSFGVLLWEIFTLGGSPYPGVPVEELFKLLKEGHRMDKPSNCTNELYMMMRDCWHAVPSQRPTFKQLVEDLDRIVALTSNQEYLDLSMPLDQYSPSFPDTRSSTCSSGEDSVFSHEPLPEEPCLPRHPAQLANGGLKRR
# label = fulfilled if phosphorylation enrichment >= 0.8 else not fulfilled

Quick check: does IKIMGSSIRTI [IDS_Y490_Y490S] have phosphorylation enrichment greater than or equal to 0.8?
not fulfilled

Exam item: decide whether the reported phosphorylation enrichment for HSHTRYERNIE [F2_Y434_R431H] is at least 0.8.
not fulfilled

Hi team, for QEIATYRRLRE [KRT17_Y384_L388R] , is the recorded phosphorylation enrichment at or above 0.8?
not fulfilled

hey, is phosphorylation enrichment for this one >= 0.8? QADVIYVNTQL [MERTK_Y872]
fulfilled

Answer whether phosphorylation enrichment of YLQEIHNSNNQ [FGG_Y140_Y140H] is greater than or equal to 0.8.
not fulfilled

// inclusive: phosphorylation enrichment at least 0.8? input: KRFRIYHLAIS [BRCA2_Y3009_T3013I_YF]
not fulfilled

Does the reported phosphorylation enrichment for HGEAYYSEVKA [PAK5_Y182_P187A] fall at or above the 0.8 mark?
fulfilled
